tested-on: Gastrin-releasing peptide receptor (Rattus norvegicus, UniProt P52500)
Sequence (P52500 whole entry N28S): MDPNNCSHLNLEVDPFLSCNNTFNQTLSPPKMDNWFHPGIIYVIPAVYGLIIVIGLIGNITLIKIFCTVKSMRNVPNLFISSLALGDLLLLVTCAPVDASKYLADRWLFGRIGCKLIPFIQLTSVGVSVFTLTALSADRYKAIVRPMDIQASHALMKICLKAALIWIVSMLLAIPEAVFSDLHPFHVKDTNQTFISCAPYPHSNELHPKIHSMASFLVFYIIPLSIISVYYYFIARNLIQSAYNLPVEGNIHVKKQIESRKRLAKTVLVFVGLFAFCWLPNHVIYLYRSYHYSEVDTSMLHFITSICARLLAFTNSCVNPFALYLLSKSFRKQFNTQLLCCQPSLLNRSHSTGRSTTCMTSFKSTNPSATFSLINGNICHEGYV
metric-name: pKi
pKi here is simply -log10 of the concentration when that concentration is written in mol/L.

pKi lookup needed for H-EGGGPQWAVGHFM-NH2 [PG-L] , thanks. 8.52

* * *

tested-on: Neuromedin-B receptor (Rattus norvegicus)
Sequence (P24053 whole entry): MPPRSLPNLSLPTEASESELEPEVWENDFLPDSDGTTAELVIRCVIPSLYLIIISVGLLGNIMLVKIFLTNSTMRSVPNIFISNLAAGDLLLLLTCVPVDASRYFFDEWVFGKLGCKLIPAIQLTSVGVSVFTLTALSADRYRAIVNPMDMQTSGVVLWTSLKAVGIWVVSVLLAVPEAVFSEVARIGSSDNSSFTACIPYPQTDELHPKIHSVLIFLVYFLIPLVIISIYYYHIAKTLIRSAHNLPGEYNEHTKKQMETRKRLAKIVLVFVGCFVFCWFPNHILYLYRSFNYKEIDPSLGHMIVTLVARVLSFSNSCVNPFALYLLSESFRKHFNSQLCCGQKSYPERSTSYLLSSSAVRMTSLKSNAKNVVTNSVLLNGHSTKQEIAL
metric-name: Ki (µM)
Return type: number; implicit unit µM.

// fetch Neuromedin-B receptor (Rattus norvegicus) Ki for H-EGGGPQWAVGHFM-NH2 [PG-L] 0.21

* * *

So I've got pKi readings for Bombesin receptor subtype-3 (Homo sapiens), take a look.
Where a SMILES comes first, the peptide text is derived from it. [ ]: non-standard residue; d: D form. pGlu = O=C1CC[C@@H](C(=O)O)N1
Note on units: pKi is unitless, being -log10 of a concentration expressed in mol/L.

Reference set, count: 2
CSCC[C@H](NC(=O)[C@@H](Cc1c[nH]c2ccccc12)NC(=O)[C@@H](Cc1c[nH]c2ccccc12)NC(=O)[C@H](Cc1ccccc1)NC(=O)[C@@H](Cc1c[nH]c2ccccc12)NC(=O)[C@H](CCC(N)=O)NC(=O)[C@H](CCC(N)=O)NC(=O)[C@H]1CCCN1)C(N)=O [Substance P(4-11),[Dpro4,Dtrp7,9,10]] (H-[dP]QQ[dW]F[dW][dW]M-NH2)    5.64
CCCNC(=O)[C@H](CC(C)C)NC(=O)[C@H](Cc1cnc[nH]1)NC(=O)CNC(=O)[C@@H](NC(=O)[C@H](C)NC(=O)[C@H](Cc1c[nH]c2ccccc12)NC(=O)[C@H](CCC(N)=O)NC(=O)[C@H](N)Cc1ccccc1)C(C)C [DPhe6-Bn(6-13)propylamide]    5.72

// next entry
// fetch Bombesin receptor subtype-3 (Homo sapiens) pKi for CSCC[C@H](NC(=O)[C@H](Cc1ccccc1)NC(=O)[C@H](Cc1c[nH]cn1)NC(=O)CNC(=O)[C@@H](NC(=O)[C@H](C)NC(=O)[C@H](Cc1c[nH]c2ccccc12)NC(=O)[C@H](CCC(N)=O)NC(=O)[C@@H]1CCCN1C(=O)[C@@H](NC(=O)[C@@H]1CCC(=O)N1)C(C)C)C(C)C)C(N)=O [CAS_29451-71-6] ([pGlu]VPQWAVGHFM-NH2) 5.16
